These entries and their values trace back to patent US9011915B2.

EXPERIMENT: In vivo release of dexamethasone from 25% dexamethasone in benzyl benzoate (DB) injected into posterior segment, vitreous humor HPLC
Set-up: species or system rabbit
CONDITION_CONTEXT: rabbit, vitreous humor, other: injected into the posterior segment of the eye, 12 mg; high dose: 50 μl 25% DB, by Day 90; read-out: mean level of dexamethasone in vitreous humor
QUANTITY_NAME: concentration at 90 day (ng/mL)
One number for each entry, in ng/mL.

Report concentration at 90 day for C[C@@H]1C[C@H]2[C@@H]3CCC4=CC(=O)C=C[C@]4(C)[C@@]3(F)[C@@H](O)C[C@]2(C)[C@@]1(O)C(=O)CO please.
1850
